Quick list: pKi per entry.
TARGET ENTITY: NAD-dependent protein deacylase sirtuin-5, mitochondrial (Homo sapiens, UniProt Q9NXA8)
Sequence (Q9NXA8 whole entry): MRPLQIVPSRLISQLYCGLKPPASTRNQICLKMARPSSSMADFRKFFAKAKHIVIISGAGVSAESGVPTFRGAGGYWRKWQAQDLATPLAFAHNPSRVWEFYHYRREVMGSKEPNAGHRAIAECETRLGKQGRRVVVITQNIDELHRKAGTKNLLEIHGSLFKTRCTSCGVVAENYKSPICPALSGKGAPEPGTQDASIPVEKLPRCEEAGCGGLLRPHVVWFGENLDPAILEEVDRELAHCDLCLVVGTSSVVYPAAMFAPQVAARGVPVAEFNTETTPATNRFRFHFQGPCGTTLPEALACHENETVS
PROTOCOL DESCRIPTION: Inhibition of human recombinant N-terminal Strep2-tagged SIRT5 expressed in Escherichia coli BL21 (DE3) using Abz-GVLK(glutaryl)AY(NO2)GV-NH2 as substrate in presence of NAD+ by fluorescence assay
Residues, ends and D or L forms follow the SMILES beside them. *: point of attachment. X11 = O=C(O)[C@H](CC(=O)*)SCc1cccc2ccccc12; X4 = O=C(O)C(CC(=O)*)Cc1ccccc1; Bz = O=C(c1ccccc1)*
A value of pKi is the negative decimal logarithm of a concentration given in moles per litre.

COMPOUND	pKi
CC(C)C[C@H](NC(=O)[C@@H](NC(=O)CNC(=O)c1ccccc1)C(C)C)C(=O)N[C@@H](CCCCNC(=O)CC(Cc1ccccc1)C(=O)O)C(=O)N[C@@H](CCC(=O)O)C(=O)N[C@@H](Cc1ccc(O)cc1)C(=O)NCC(=O)N[C@H](C(N)=O)C(C)C (some centres not stated) (Bz-GVLK(X4)EYGV-NH2)	6.58

Using known records, supply pKi for CC(C)C[C@H](NC(=O)[C@@H](NC(=O)CNC(=O)c1ccccc1)C(C)C)C(=O)N[C@@H](CCCCNC(=O)C[C@H](SCc1cccc2ccccc12)C(=O)O)C(=O)N[C@@H](CCC(=O)O)C(=O)N[C@@H](Cc1ccc(O)cc1)C(=O)NCC(=O)N[C@H](C(N)=O)C(C)C (Bz-GVLK(X11)EYGV-NH2)
8.15
